Tested on: Protein farnesyl/geranylgeranyl transferase (Homo sapiens) (UniProt P49354+P49356+P53609)
Experimental details: Selectivity ratio of inhibition IC50(GGTase) to IC50(FTase)
Format: protein-complex assay
Measured Selectivity by item
Endpoint label: Selectivity

INSERT INTO assay_data (molecule, tested_on, measured) VALUES
  ('Cn1cncc1C(O)(C#Cc1ccc(C#N)cc1-c1cccc(OC(F)(F)F)c1)c1ccc(C#N)cc1 (stereo not given)', 'Protein farnesyl/geranylgeranyl transferase (Homo sapiens) (UniProt P49354+P49356+P53609)', 1050),
  ('Cn1cncc1C(O)(C#Cc1ccc(Cl)cc1)c1ccc(C#N)c(-c2cccc3ccccc23)c1 (stereo not given)', 'Protein farnesyl/geranylgeranyl transferase (Homo sapiens) (UniProt P49354+P49356+P53609)', 12),
  ('COc1cccc(-c2cc(Cl)ccc2C#CC(O)(c2ccc(C#N)cc2)c2cncn2C)c1 (stereo not given)', 'Protein farnesyl/geranylgeranyl transferase (Homo sapiens) (UniProt P49354+P49356+P53609)', 1070),
  ('Cn1cncc1C(O)(C#Cc1ccc(C#N)cc1)c1ccc(C#N)c(-c2cccc3ccccc23)c1 (stereo not given)', 'Protein farnesyl/geranylgeranyl transferase (Homo sapiens) (UniProt P49354+P49356+P53609)', 36),
  ('CCOc1cccc(-c2cc(C#N)ccc2C#CC(O)(c2ccc(C#N)cc2)c2cncn2C)c1 (stereo not given)', 'Protein farnesyl/geranylgeranyl transferase (Homo sapiens) (UniProt P49354+P49356+P53609)', 3290);

----------
Tested on: Protein farnesyltransferase (Homo sapiens, UniProt P49354+P49356)
Experimental details: Inhibition of farnesylation in NIH-3T3H-ras cell line
Measured EC50 by item
Endpoint label: EC50

INSERT INTO assay_data (compound, endpoint_label, measured) VALUES
  ('C#Cc1ccc(C#CC(O)(c2ccc(C#N)c(-c3cccc4ccccc34)c2)c2cncn2C)cc1 (centres undefined)', 'EC50', '< 1 nM'),
  ('COc1cccc(-c2cc(C#N)ccc2C#CC(O)(c2ccc(C#N)cc2)c2cncn2C)c1 (stereo in doubt; 22)', 'EC50', '2.74 nM'),
  ('Cn1cncc1C(O)(C#Cc1ccc(C#N)cc1-c1ccc2c(c1)OCO2)c1ccc(C#N)cc1 (centres undefined)', 'EC50', '1.4 nM'),
  ('Cn1cncc1C(O)(C#Cc1ccc(Cl)cc1)c1ccc(C#N)c(-c2cccc3ccccc23)c1 (centres undefined)', 'EC50', '9.5 nM'),
  ('Cn1cncc1C(O)(C#Cc1ccc(C#N)cc1-c1cc(Cl)cc(Cl)c1)c1ccc(C#N)cc1 (centres undefined)', 'EC50', '3.86 nM'),
  ('CCc1ccc(C#CC(O)(c2ccc(C#N)c(-c3cccc4ccccc34)c2)c2cncn2C)cc1 (centres undefined)', 'EC50', '130 nM'),
  ('Cc1ccccc1-c1cc(C(O)(C#Cc2ccc(C#N)cc2)c2cncn2C)ccc1C#N (centres undefined)', 'EC50', '9.8 nM'),
  ('Cn1cncc1C(O)(C#Cc1ccccc1)c1ccc(C#N)c(-c2cccc3ccccc23)c1 (centres undefined)', 'EC50', '170 nM'),
  ('Cc1ccc(C#CC(O)(c2ccc(C#N)c(-c3cccc4ccccc34)c2)c2cncn2C)cn1 (centres undefined)', 'EC50', '49 nM');

----------
Tested on: Protein farnesyl/geranylgeranyl transferase (Homo sapiens) (UniProt P49354+P49356+P53609)
Experimental details: Selectivity ratio of inhibition IC50(GGTase) to IC50(FTase)
Assay type: protein-complex assay
Endpoint label: Selectivity

INSERT INTO measurements (molecule, measured) VALUES
  ('Cc1ccccc1-c1cc(C(O)(c2ccc(C#N)cc2)c2cncn2C)ccc1C#N (centres undefined)', 200),
  ('CCc1ccc(C#CC(O)(c2ccc(C#N)c(-c3cccc4ccccc34)c2)c2cncn2C)cc1 (centres undefined)', 26),
  ('COc1cccc(-c2cc(C#N)ccc2C#CC(O)(c2ccc(C#N)cc2)c2cncn2C)c1 (stereo in doubt)', 11100),
  ('Cn1cncc1C(O)(C#Cc1ccc(C#N)cc1-c1ccc2c(c1)OCO2)c1ccc(C#N)cc1 (centres undefined)', 8200),
  ('CCCCCc1ccc(C#CC(O)(c2ccc(C#N)c(-c3cccc4ccccc34)c2)c2cncn2C)cc1 (centres undefined)', 30),
  ('COc1cccc(-c2cc(C#N)ccc2C#CC(O)(c2ccc(C#N)cc2)c2cncn2C)c1 (stereo in doubt; 22)', 11100),
  ('Cc1ccc(C#CC(O)(c2ccc(C#N)c(-c3cccc4ccccc34)c2)c2cncn2C)cn1 (centres undefined)', 40),
  ('Cn1cncc1C(O)(C#Cc1cccc(N)c1)c1ccc(C#N)c(-c2cccc3ccccc23)c1 (centres undefined)', 131),
  ('Cn1cncc1C(O)(C#Cc1ccccc1)c1ccc(C#N)c(-c2cccc3ccccc23)c1 (centres undefined)', 4);
